- Test system: HIV-1/106-Ala
- test-name: Inhibition of HIV-1 induced syncytium formation in CEM cells, RT mutant 106-Ala
- Assay type: cell-based
- measurement-setup: Human immunodeficiency virus 1, CCRF-CEM, 96 h, Table 2B, day 4, averages of 2 to 3 independent experiments, read-out: Antiviral Activity of Comparative Compounds EC50, 106-Ala
Below: a set of entries, each annotated with reported log10(EC50).
Short version: log10 scale, EC50, µg/mL.

// query Which measured log10(EC50) belongs to CON=Cc1cc(NC(=S)c2ccoc2C)ccc1OC [Compound 4] , tested on HIV-1/106-Ala?
// result -0.66

// query Which measured log10(EC50) belongs to CC=CCSc1cc(NC(=S)c2ccsc2C)ccc1Cl [Compound 8] , tested on HIV-1/106-Ala?
// result -1.64

// query Which measured log10(EC50) belongs to Cc1c(C(=S)Nc2ccc(Cl)c(C=NOC(C)(C)C)c2)ccn1C [Compound 10] , tested on HIV-1/106-Ala?
// result -0.64

// query Which measured log10(EC50) belongs to Cc1c(C(=O)Nc2ccc(Cl)c(C=NOC(C)(C)C)c2)ccn1C [Compound 38] , tested on HIV-1/106-Ala?
// result -0.15

// query Which measured log10(EC50) belongs to Cc1occc1C(=S)Nc1ccc(Cl)c(C(=O)OC(C(C)C)C(C)C)c1 [Compound 102] , tested on HIV-1/106-Ala?
// result -0.07

* * *

Below: a set of entries, each annotated with reported EC50.
- System: HIV-1/106-Ala
- test-name: Inhibition of HIV-1 induced syncytium formation in CEM cells, RT mutant 106-Ala
- Format: cell-based
- measurement-setup: Human immunodeficiency virus 1, CCRF-CEM, 96 h, Table 2B, day 4, averages of 2 to 3 independent experiments, read-out: Antiviral Activity of Comparative Compounds EC50, 106-Ala
The answer is to be given in µg/mL; state only the numeric part.

// query Given the entry O=C(OC1CCCCC1)c1cc(NC(=S)c2ccccc2)ccc1Cl [Compound 82] , report its measured EC50.
// result 1

// query Given the entry COc1ccc(NC(=S)c2ccoc2C)cc1CC(=O)OC(C)C [Compound 57] , report its measured EC50.
// result 0.2

// query Given the entry O=C(OC1CCCCC1)c1cc(NC(=S)c2ccsc2)ccc1Cl [Compound 79] , report its measured EC50.
// result 0.07

// provenance: patent US5696151A
